Attribution: the supplement of paper PMC12764529

What folding stability dG unfold was measured for each of the following?
Experiment: folding stability dG unfold from chymotrypsin proteolysis; higher = more stable
Give bare numbers, in kcal/mol.

## Input Tell me its folding stability dG unfold given SAMPVVTLKAKVTIHSDPNGIEEKEIEITVTFPDPNVGLEEAKKKAEEAIKEYAEKNGLKIELEEITIESAG [r14_190_JUSTAS] as the entry.
## Output 2.06

// for each sequence in input: emit folding stability dG unfold
1. SAGGSAGGSMVITVDPSLSPEEAVERAKEEVKKEVPESEPVEVTVVIKDPETGKTTEIPVKLDSAGGSAGGS [r12_1051_JUSTAS]
2. SAPILPDAVVSEKPSVSQLPGNSTLVTTTYTYPGGPTITKTTTYTVDPSTGKWTTTSSTTLTPEAAAAASAG [r14_842_JUSTAS]
3. SAGGSAGGNKSYTVIIRFPMKRKEDPDGEDKKPRPVTIEYTVKSPEDANELKNKLKDNGAEIVPSAGGSAGG [r6_141_TrROS]
4. SAGGSAGGSSLKPGQELELTLTLRVEVEVEVYENGKPVERYRVEREVRLTLRLKLPAASLEDLSAGGSAGGS [r20_14_TrROS_Hall]
5. SAGGSMSPWHWARHIAKKLRKKFPPGKKVRIKIEYDDGPVEFEIPPGEWIPIPSNAPIEILNIKVKSAGGSA [r2_391_TrROS]

## Output
1. -1.17
2. 0.977
3. 0.698
4. 5.73
5. 2.36

// batch mode: one folding stability dG unfold value per listed entry
1. SAGGSASIEIPVGDKPVRIEILSLEPEGERVRARAVVYFPDDPEYREISGDLTLEELIDAILEAIGSAGGSA [r15_944_TrMRF]
2. KVEIKVEIEVKYNKETGKKVVKIRITVKEGSKEEAEKLAAELAKELFGPNVKVTVEYDKETDEITVTLVFPS [r1_273_TrROS_Hall]

## Output
1.15
4.06

* * *

Experiment: folding stability dG unfold (combined trypsin and chymotrypsin); higher = more stable
readoutLabel: folding stability dG unfold (kcal/mol)
One number for each entry, in kcal/mol.

Reference set (5 entries):
## Input Specify folding stability dG unfold for SAGGSAKTKVIEIEIDLSPEEIEELAKKLKEEGKVEEVKVEYDEKTGKVKVTVVVRDKNGEWKKLSSAGGSA [r15_177_TrROS_Hall] and stop.
## Output 0.556

## Input Give a short answer stating reported folding stability dG unfold for SIWFSPGKKYKIDEIRFGGWEIEKFTAQVGPDGNIQIPMDIKPVKKPPPPPPVVRNPEDGKYYDPGDPKDSA [r9_603_TrROS] .
## Output 1.04

## Input Determine its reported folding stability dG unfold: SAGGSAGGKIAVIPYVPEEDIPPELRELFGKEGSLSPEEFQELFAEAVARELGEEGAIDAVIVESAGGSAGG [r6_654_TrMRF]
## Output 0.778

## Input Supply recorded folding stability dG unfold for SEKVKKELNEAGYPVKDIKFVPEKGYAYITVEVYVPEVDKKVEKEIVIPFPDSATPEQLTEAARKALEADSA [r9_184_TrMRF] here.
## Output 3.09

## Input Using the record for SAGGSAGGSAGGKAKIVDVKIEKEGNTVTIEVKIEVDGKLIATAKVRFTGPDGKLEIEIESAGGSAGGSAGG [r7_133_TrROS_Hall] , state its measured folding stability dG unfold.
## Output 3.15

// input: 3 sequences below; output: folding stability dG unfold for each
1. SAGISIRFPGMQIEIDEIERDNNKVVIRVEVTMPAKNPNGQPQMMTHTMWIVIKIPPPPPPADPADAKKSAG [r5_70_TrROS]
2. SMVVLPVRYPDLSPEEARAAVEALAAEIEAAVGAEVRVEVEVERAPDGTPVRVLVTATVVIRTAADALLLSA [r9_21_JUSTAS]
3. SAGGSAGGSAGGKKIKILVKIKDLKKLKGLKPGDLALIEIEVEVKPEKKTEKKYTYKKKSAGGSAGGSAGGS [r10_1233_TrROS_Hall]

## Output
1. 3.51
2. 1.09
3. 0.693
